# TEST_SUMMARY: Quantitative highthroughput screen to assess conditional lethalithy of P12 Ichikawa cells grown in RPMI1640 with dialyzed fetal bovine serum (RPMI+ds) (AID 1963880); further: nearly all actives have a fitted effect of over 35% in size;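 on viability: 100% = DMSO wells and 0% = empty wells on each plate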
# CONDITION_INFO: ATP luminescence, 48 h; P12-Ichikawa viability; series mostly up to 45.8 µM
Results filed as inconclusive are left out. Active and inactive are the calls of the source. The call rests on the fitted dose curve; in most records, active means well fitted cell-killing curve with a large enough effect; inconclusive means small, poorly fitted or top-dose-only effect; inactive means flat fitted curve, though single readings scatter.
Classes used: active, inactive

MOLECULE: CCc1c2c(nc3ccc(O)cc13)-c1cc3c(c(=O)n1C2)COC(=O)[C@]3(O)CC
DISCRETE_LABEL: active
//
MOLECULE: CO[C@H]1C=CO[C@@]2(C)Oc3c(C)c(O)c4c(O)c(c5c(c4c3C2=O)NC2(CCN(CC(C)C)CC2)N=5)=NC(=O)C(C)=CC=C[C@H](C)[C@H](O)[C@@H](C)[C@@H](O)[C@@H](C)[C@H](OC(C)=O)[C@H]1C
DISCRETE_LABEL: inactive
//
MOLECULE: COc1ccc2c3c1OC1C[C@@H](O)C=C[C@@]31CCN(C)C2 (stereo partly specified)
DISCRETE_LABEL: inactive
//
MOLECULE: N#CC(=C(O)c1ccc(Cl)cc1Cl)c1nc2cc(Cl)ccc2c(=O)[nH]1
DISCRETE_LABEL: inactive
//
MOLECULE: Cc1ccc(C(=O)Nc2ccc(Oc3cc4cnn(C)c4cc3-c3cn[nH]c3)c(F)c2)c(=O)n1-c1ccc(F)cc1
DISCRETE_LABEL: active
//
MOLECULE: N#CC(c1ccnc(NCCc2cccnc2)n1)c1nc2ccccc2s1 (stereo unspecified)
DISCRETE_LABEL: inactive

###

# TEST_SUMMARY: Quantitative highthroughput screen to assess conditional lethalithy of P12 Ichikawa cells grown in RPMI1640 with dialyzed fetal bovine serum (RPMI+ds) (AID 1963880); further: nearly all actives have a fitted effect of over 35% in size;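 on viability: 100% = DMSO wells and 0% = empty wells on each plate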
# CONDITION_INFO: ATP luminescence, 48 h; P12-Ichikawa viability; series mostly up to 45.8 µM
Inconclusive results are not listed. Activity calls are given as the source filed them. The call rests on the fitted dose curve; in most records, active means well fitted cell-killing curve with a large enough effect; inconclusive means small, poorly fitted or top-dose-only effect; inactive means flat fitted curve, though single readings scatter.
Classes used: active, inactive

COMPOUND: COC1CCC(N(C(=O)C2CCC(C)CC2)c2cc(C3=CCCCC3)sc2C(=O)O)CC1 (stereo not given)
DISCRETE_LABEL: active
//
COMPOUND: CC(C)C(=O)Nc1ccc([N+](=O)[O-])c(C(F)(F)F)c1
DISCRETE_LABEL: active
//
COMPOUND: O=c1cc(O)c(Cl)c[nH]1
DISCRETE_LABEL: active
//
COMPOUND: C[C@H]1C[C@H]2[C@@H]3CCC4=CC(=O)C=C[C@]4(C)[C@@H]3C(=O)C[C@]2(C)[C@@]1(O)C(=O)CO
DISCRETE_LABEL: inactive
//
COMPOUND: NC(=O)c1cccc(-c2cc(Nc3ccc(OC(F)(F)F)cc3)ncn2)c1
DISCRETE_LABEL: inactive
//
COMPOUND: COc1cc2nc(N3CCN(C(=O)C4COc5ccccc5O4)CC3)nc(N)c2cc1OC (stereo not given)
DISCRETE_LABEL: inactive
//
COMPOUND: C=C1C(=O)OC(CCCCCCCC)C1C(=O)O (stereo not given)
DISCRETE_LABEL: inactive
//
COMPOUND: O=C(O)C=Cc1ccc(O)c(O)c1
DISCRETE_LABEL: active
//
COMPOUND: O=c1c(-c2ccc(O)cc2)coc2cc(O[C@@H]3O[C@H](CO)[C@H](O)[C@H](O)[C@H]3O)ccc12
DISCRETE_LABEL: inactive
//
COMPOUND: O=C(O)c1ccc(-c2c[nH]c3ncc(-c4ccccc4)cc23)cc1C1CCCC1
DISCRETE_LABEL: active
//
COMPOUND: C[C@H]1O[C@@H](n2cc(F)c(=O)[nH]c2=O)[C@H](O)[C@H]1O
DISCRETE_LABEL: inactive
//
COMPOUND: C[C@]12CCC3=C4CCC(=O)C=C4CC[C@@H]3[C@H]1CC[C@@]2(O)CC#N
DISCRETE_LABEL: inactive
//
COMPOUND: CN1C(=O)c2sccc2N(C)c2nc(Nc3ccc(S(N)(=O)=O)cc3)ncc21
DISCRETE_LABEL: active
//
COMPOUND: C[C@@H]1CC[C@@]2(OC1)OC1CC3C4CC=C5CC(O)CCC5(C)C4CCC3(C)C1[C@@H]2C (stereo not given in full)
DISCRETE_LABEL: active
//
COMPOUND: C=C1c2cccc(O)c2C(O)=C2C(=O)[C@@]3(O)C(O)=C(C(N)=O)C(=O)[C@@H](N(C)C)[C@@H]3[C@@H](O)[C@H]12
DISCRETE_LABEL: inactive
//
COMPOUND: Cc1cc(Cl)ccc1OCCCC(=O)NO
DISCRETE_LABEL: active
//
COMPOUND: O=C1NC(=O)C(c2cnc3ccccn23)=C1c1cn2c3c(cc(F)cc13)CN(C(=O)N1CCCCC1)CC2
DISCRETE_LABEL: active
//
COMPOUND: COc1cc2c(N3CCN(C(=O)Nc4ccc(OC(C)C)cc4)CC3)ncnc2cc1OCCCN1CCCCC1
DISCRETE_LABEL: active
//
COMPOUND: C[C@]12CC[C@@H]3c4ccc(O)cc4C[C@@H](CCCCCCCCCS(=O)CCCC(F)(F)C(F)(F)F)[C@H]3[C@H]1CC[C@H]2O (stereo not given in full)
DISCRETE_LABEL: inactive
//
COMPOUND: COc1cc(C[C@@H](CO)[C@H](CO)Cc2ccc(O)c(OC)c2)ccc1O
DISCRETE_LABEL: inactive
//
COMPOUND: CNC1CCCN(c2c(F)cc3c(=O)c(C(=O)O)cn(C4CC4)c3c2OC)C1 (stereo not given)
DISCRETE_LABEL: inactive
//
COMPOUND: CN1CCN(c2c(F)cc3c(=O)c(C(=O)O)cn(CCF)c3c2F)CC1
DISCRETE_LABEL: inactive
//
COMPOUND: COc1cc(OC)c(NC(=O)Nc2cc(C)on2)cc1Cl
DISCRETE_LABEL: inactive
//
COMPOUND: CC1(C)CNc2cc(NC(=O)c3cccnc3NCc3ccncc3)ccc21
DISCRETE_LABEL: inactive
//
COMPOUND: Clc1ccc2c(c1)C(N1CCNCC1)=Nc1ccccc1O2
DISCRETE_LABEL: inactive
//
COMPOUND: Cc1cc(Nc2nc(N[C@@H](C)c3ccc(F)cc3)c(C#N)cc2F)n[nH]1
DISCRETE_LABEL: active
//
COMPOUND: COc1cc(C=CC(=O)O)ccc1O
DISCRETE_LABEL: inactive
//
COMPOUND: N[C@@H](C(=O)N[C@@H]1C(=O)N2C(C(=O)O)=C(Cl)CS[C@H]12)c1ccccc1
DISCRETE_LABEL: inactive
//
COMPOUND: c1cc(-c2sc(-c3ccncc3)c(-c3ccncc3)c2-c2ccncc2)ccn1
DISCRETE_LABEL: inactive
//
COMPOUND: CCN(CCO)CCCC(C)Nc1ccnc2cc(Cl)ccc12 (stereo not given)
DISCRETE_LABEL: active
//
COMPOUND: CCCC1OC2C[C@@H]3[C@H]4CCC5=CC(=O)C=C[C@]5(C)[C@H]4C(O)C[C@]3(C)[C@]2(C(=O)CO)O1 (stereo not given in full)
DISCRETE_LABEL: active
//
COMPOUND: Clc1ccc(Nc2nnc(Cc3ccncc3)c3ccccc23)cc1
DISCRETE_LABEL: inactive
//
COMPOUND: Cn1cnc2c(F)c(Nc3ccc(Br)cc3F)c(C(=O)NOCCO)cc21
DISCRETE_LABEL: inactive
//
COMPOUND: Nc1nccc(Oc2ccc(NC(=O)c3c[nH]cc(-c4ccc(F)cc4)c3=O)cc2F)c1Cl
DISCRETE_LABEL: active
//
COMPOUND: CCCCOc1c(C(=O)c2c(F)cc(C)cc2F)cnc2n[nH]cc12
DISCRETE_LABEL: inactive

###

# TEST_SUMMARY: Cellular viability qHTS for adrenocortical cancer (ACC) cell line NCI-H295R (AID 1963990); further: nearly all actives have a fitted effect of over 60% in size
# CONDITION_INFO: CellTiter-Glo ATP luminescence, 48 h; series mostly up to 46.1 µM
Inconclusive results are not listed. Activity calls are given as the source filed them. Calls come from the whole dose curve; as a rule, active = well fitted cell-killing curve with a large enough effect; inconclusive = small, poorly fitted or top-dose-only effect; inactive = flat fitted curve, though single readings scatter.
Classes used: true (1) = active, false (0) = inactive

MOLECULE: CCNC(=O)C#Cc1ccc2c(C(=Nc3ccc(CN(C)C)cc3)c3ccccc3)c(O)[nH]c2c1
DISCRETE_LABEL: true (1)
--
MOLECULE: N#Cc1c(C2CCNCC2)cc(-c2c(O)cccc2OCC2CC2)nc1N
DISCRETE_LABEL: true (1)
--
MOLECULE: Nc1c2c(nc3c1CCC3)CCCC2
DISCRETE_LABEL: false (0)
--
MOLECULE: Nc1ccn([C@@H]2O[C@H](CO)[C@@H](O)[C@H]2O)c(=O)n1
DISCRETE_LABEL: false (0)
--
MOLECULE: CC(=O)O[C@H]1C[C@@H]2CC[C@H]3[C@H]4C[C@H]([N+]5(C)CCCCC5)[C@@H](OC(C)=O)[C@@]4(C)CC[C@@H]3[C@@]2(C)C[C@H]1[N+]1(C)CCCCC1
DISCRETE_LABEL: false (0)
--
MOLECULE: COc1cc(NS(=O)(=O)c2ccc(N)cc2)nc(C)n1
DISCRETE_LABEL: false (0)
--
MOLECULE: CN(C)C[C@@H]1CCn2cc(c3ccccc32)C2=C(C(=O)NC2=O)c2cn(c3ccccc23)CCO1
DISCRETE_LABEL: true (1)
--
MOLECULE: Cc1ccc(S(=O)(=O)Cc2nc(-c3ccc(C(=O)NCc4cccnc4)cc3)oc2C)cc1
DISCRETE_LABEL: true (1)
--
MOLECULE: CN(C)c1cc(NC(=O)CNC(C)(C)C)c(O)c2c1C[C@H]1C[C@H]3[C@H](N(C)C)C(=O)C(C(N)=O)=C(O)[C@]3(O)C(=O)C1=C2O
DISCRETE_LABEL: false (0)
--
MOLECULE: CCN1CCN(C(=O)N[C@@H](C(=O)N[C@@H]2C(=O)N3C(C(=O)O)=C(CSc4nnnn4C)CS[C@H]23)c2ccc(O)cc2)C(=O)C1=O
DISCRETE_LABEL: false (0)
--
MOLECULE: NCCNCCNCCN
DISCRETE_LABEL: false (0)
--
MOLECULE: CC(C)Oc1cc(Nc2nc(N[C@@H](C)c3ccc(F)cn3)ncc2Cl)[nH]n1
DISCRETE_LABEL: false (0)
--
MOLECULE: CC(=O)N[C@@H](CC(C)C)C(=O)O
DISCRETE_LABEL: false (0)
--
MOLECULE: COCCOc1nc(-c2ccc(Cl)c(Cl)c2)n(-c2ccc(NC(=O)CCl)cc2)n1
DISCRETE_LABEL: true (1)
--
MOLECULE: Cc1nc([C@](C)(O)CO)sc1-c1cnc(N)c(O[C@H](C)c2cc(F)ccc2-n2nccn2)c1
DISCRETE_LABEL: true (1)
--
MOLECULE: Cc1cc(C)c(S(=O)(=O)N(CCc2cccc(Br)c2)Cc2ccc(-c3cccc(S(C)(=O)=O)c3)cc2)c(C)c1
DISCRETE_LABEL: false (0)
--
MOLECULE: CN1C(CCl)Nc2cc(Cl)c(S(N)(=O)=O)cc2S1(=O)=O (configuration not stated)
DISCRETE_LABEL: false (0)
--
MOLECULE: O=C1NC(c2ccccc2)(c2ccccc2)C(=O)N1COP(=O)(O)O
DISCRETE_LABEL: false (0)
--
MOLECULE: CCCCC1C(=O)N(c2ccccc2)N(c2ccc(O)cc2)C1=O (configuration not stated)
DISCRETE_LABEL: true (1)
--
MOLECULE: CNCCN(C)Cc1cn[nH]c1-c1ccc(OC2CC(OCCC3CCOCC3)C2)cc1 (configuration not stated)
DISCRETE_LABEL: false (0)
--
MOLECULE: N#Cc1ccc(NC(=O)Nc2ccccc2Br)c2n[nH]nc12
DISCRETE_LABEL: false (0)
--
MOLECULE: NC[C@H]1O[C@H](O[C@H]2[C@H](O)[C@@H](O[C@H]3O[C@H](CO)[C@@H](O)[C@H](N)[C@H]3O)[C@H](N)C[C@@H]2N)[C@H](N)C[C@@H]1O
DISCRETE_LABEL: false (0)
--
MOLECULE: Cc1[nH]cnc1CN1CCc2c(c3ccccc3n2C)C1=O
DISCRETE_LABEL: false (0)
--
MOLECULE: C[C@@H](N)C(=O)O
DISCRETE_LABEL: false (0)
--
MOLECULE: CC(C)Cn1cnc2c1c(=O)n(C)c(=O)n2C
DISCRETE_LABEL: false (0)
--
MOLECULE: Nc1nc(Nc2ccc3c(c2)CC[C@@H](N2CCCC2)CC3)nn1-c1cc2c(nn1)-c1ccccc1CCC2
DISCRETE_LABEL: true (1)
--
MOLECULE: Cc1c(-c2ccccc2)oc2c(C(=O)OCCN3CCCCC3)cccc2c1=O
DISCRETE_LABEL: false (0)
--
MOLECULE: NS(=O)(=O)c1ccc(NC2=CC(=O)c3ccccc3C2=O)cc1
DISCRETE_LABEL: true (1)
--
MOLECULE: CCN1CCN(Cc2ccc(Nc3ncc(F)c(-c4cc(F)c5nc(C)n(C(C)C)c5c4)n3)nc2)CC1
DISCRETE_LABEL: true (1)
--
MOLECULE: Cn1c([N+](=O)[O-])cnc1COC(N)=O
DISCRETE_LABEL: false (0)
--
MOLECULE: Nc1ccc(N=Nc2ccccc2)c(N)n1
DISCRETE_LABEL: false (0)
--
MOLECULE: O=c1cc(N2CCOCC2)oc2c(-c3ccccc3)cccc12
DISCRETE_LABEL: false (0)
--
MOLECULE: CC1Oc2cc(cnc2N)-c2c(nn(C)c2C#N)CN(C)C(=O)c2ccc(F)cc21 (configuration not stated)
DISCRETE_LABEL: true (1)
--
MOLECULE: COC(=O)c1ccc(NC(C)=O)cc1OC
DISCRETE_LABEL: false (0)
--
MOLECULE: Clc1cccc(-c2ccc(-c3nnc(CCCc4ccc5cccnc5n4)o3)cc2)c1
DISCRETE_LABEL: false (0)
--
MOLECULE: NS(=O)(=O)Cc1noc2ccccc12
DISCRETE_LABEL: false (0)
--
MOLECULE: COC(=O)C1=C(C)NC(C)=C(C(=O)OCCc2ccc(N3CCN(C(c4ccccc4)c4ccccc4)CC3)cc2)C1c1cccc([N+](=O)[O-])c1 (configuration not stated)
DISCRETE_LABEL: false (0)
